Measured values drawn from paper PMC5726015 for this set.

Target: T1, Recombinant EBOV GP without transmembrane domain (Zaire ebolavirus, strain of GP not …, UniProt Q05320)
T1 construct: also called recombinant GP; EBOV rGPdTM; source: bought: IBT Bioservices
T1 sequence (Q05320 whole entry, looked up, the tested form may be a part): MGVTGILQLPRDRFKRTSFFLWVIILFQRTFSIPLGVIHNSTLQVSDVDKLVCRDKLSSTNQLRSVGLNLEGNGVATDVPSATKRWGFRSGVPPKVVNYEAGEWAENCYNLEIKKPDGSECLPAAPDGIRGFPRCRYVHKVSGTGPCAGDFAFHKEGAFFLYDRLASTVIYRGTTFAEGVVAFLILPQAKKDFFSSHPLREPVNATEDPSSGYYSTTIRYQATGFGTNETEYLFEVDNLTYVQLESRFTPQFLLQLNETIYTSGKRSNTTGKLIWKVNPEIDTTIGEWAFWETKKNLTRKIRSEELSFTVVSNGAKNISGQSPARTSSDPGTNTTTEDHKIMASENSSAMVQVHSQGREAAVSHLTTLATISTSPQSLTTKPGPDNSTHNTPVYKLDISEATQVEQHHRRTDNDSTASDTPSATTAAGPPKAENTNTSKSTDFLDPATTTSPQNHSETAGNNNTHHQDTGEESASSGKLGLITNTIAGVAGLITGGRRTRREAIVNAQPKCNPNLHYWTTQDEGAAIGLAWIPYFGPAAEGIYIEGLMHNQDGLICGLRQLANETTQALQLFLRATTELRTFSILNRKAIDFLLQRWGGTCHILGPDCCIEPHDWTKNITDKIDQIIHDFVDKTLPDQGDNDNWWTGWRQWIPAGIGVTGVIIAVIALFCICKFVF
Test: SPR
Settings: both partners purified
Label YES when kon >= 30000 M⁻¹ s⁻¹; otherwise NO.

Check out these entries, answers already filled in.
{"Binder": "EBOV-GP-C12 (VHH) VHH: EVQLQASGGGLVQPGGSLRLSCTASGSIFSINAMGWYRQTPRKERELVAAISEGGSTKYGDSVKGRFTISRDFAKNTQMVYLQMNSLKAEDTAVYYCKAQTEGPIADWGTSQYEYWGQGTQVTVS", "Class label": "NO"}
{"Binder": "EBOV-GP-G6 (VHH) VHH: DVQLQASGGGLVQAGGSLRISCAASGGALSDYNMGWFRQAPGKEREFVAVVTWSGGSTRYADSVNGRFTISRDNAKNTVYLQMNSLKPEDTAVYYCAAAPLTPFQSLGDMKAYNYWGQGTQVTVS", "Class label": "YES"}
{"Binder": "EBOV-GP-B5 (VHH) VHH: EVQLQASGGGLVQAGGSLRLSCTASLRAFSTYTMGWFRQAPGKEREFVAASNWRGTDFHDSVKGRFIISRDNTKKTVDLQMNSLKPEDTAIYYCAADGSTWLKRSDYSYWGQGTQVTVS", "Class label": "YES"}
{"Binder": "EBOV-GP-B11 (VHH) VHH: EVQLQASGGGLVQTGGSLRLACAGSGRSFNNYGMGWFRQAPGKERQFVAAISGNDHTTHYSDSVKGRFTISRDNAKTTVYLQMNSLKPEDTAVYYCAADRLGSFFFPRASPSDYGYWGQGTQVTVS", "Class label": "YES"}
{"Binder": "EBOV-GP-E7 (VHH) VHH: EVQLQASGGGLVQPRGSLRLSCAASGSIFSINAMGWYRQTPEKQRELVATISSSGSTKYGDSVKGRFTISRDNAKNTVYLQMNSLKPEDTAVYYCNTQTAGLVADWGTSHYDYWGQGVQVTVS", "Class label": "NO"}
{"Binder": "EBOV-GP-H7 (VHH) VHH: DVQLQASGGGLVQAGGSLRLSCAASSGTFSSYTMGWFRQAPGKERELVARLSQSLTTLYADSVKGRFTISRDNAENTVYLQMNSLKPEDTGVYYCAAHPGTYGSAWLISPHDYAYWGQGTQVTVS", "Class label": "NO"}

Here's the next entry for you.
Is kon at least 30000 M⁻¹ s⁻¹? Consider EBOV-GP-A8 (VHH, also called Bt-EBOV-GP-A8) VHH: EVQLQASGGGLAQAGGSLQLSCAAPGRPVRTYTMGWFRQAPGKEREFVAANNWRGTRYAGSVRGRFSISRDNSKNTVYLQMNSLKPEDTAVYYCACAVTADLLLSGNYFRGDDYDYWGQGTQVTVS
YES
